Every entry's value here was drawn from patent EP4603105A1.

Tested On: GDP-bound KRAS wild-type protein (Homo sapiens)
Sequence (P01116 1-188 isoform P01116-2): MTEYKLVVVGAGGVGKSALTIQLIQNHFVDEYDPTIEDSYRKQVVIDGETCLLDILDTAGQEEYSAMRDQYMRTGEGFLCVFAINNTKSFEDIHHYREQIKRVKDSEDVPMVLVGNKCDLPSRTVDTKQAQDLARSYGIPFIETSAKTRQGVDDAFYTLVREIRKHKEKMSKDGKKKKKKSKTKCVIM
Assay Name: Binding to KRAS by surface plasmon resonance (SPR), dissociation constant KD
Protocol Conditions: Single Cycle Kinetics
Kd values, listed per item
Dear colleague, please return just the value in nM, with no unit written.

Known Kd results, listed for orientation:
Compound	Tested On	Kd [nM]
CCO[C@@H]1C[C@H]2C(=O)NC3(CCCC3)C(=O)N(C)[C@@H](C3CCCC3)C(=O)N(C)[C@H](C(=O)N(C)C)CC(=O)N(C)[C@@H]([C@@H](C)OC)C(=O)N[C@@H]([C@@H](C)CC)C(=O)N3CCC[C@H]3C(=O)N(C)[C@H]3C/C=C\CCN(C3=O)[C@@H](Cc3ccc(C(F)(F)F)cc3)C(=O)N(C)CC(=O)N[C@@H](CCc3cc(F)c(C(F)(F)F)c(F)c3)C(=O)N2C1 [PP3477]	GDP-bound KRAS wild-type protein (Homo sapiens)	0.51
CCC[C@H]1C(=O)N[C@@H]([C@@H](C)CC)C(=O)N2CCC[C@H]2C(=O)N(C)[C@H]2C/C=C\CCN(C2=O)[C@@H](Cc2ccc(C)cc2)C(=O)N(C)CC(=O)N[C@@H](CCc2cc(F)c(C(F)(F)F)c(F)c2)C(=O)N2C[C@H](OCC)C[C@H]2C(=O)NC2(CCCC2)C(=O)N(C)[C@@H](C2CCCC2)C(=O)N(C)[C@H](C(=O)N(C)C)CC(=O)N1C [PP3480]	GDP-bound KRAS wild-type protein (Homo sapiens)	0.49
CCC[C@H]1C(=O)N[C@@H]([C@@H](C)CC)C(=O)N(C)CC(=O)N(C)[C@H]2C/C=C\CCN(C2=O)[C@@H](Cc2ccc(C)cc2)C(=O)N(C)CC(=O)N[C@@H](CCc2ccc(C(F)(F)F)c(Cl)c2)C(=O)N2CC3(CC3)C[C@H]2C(=O)NC2(CCC2)C(=O)N(C)[C@@H](C2CCCC2)C(=O)N(C)[C@H](C(=O)N(C)C)CC(=O)N1C [PP3442]	GDP-bound KRAS wild-type protein (Homo sapiens)	0.083
C#CC[C@H]1C(=O)N[C@@H]([C@@H](C)CC)C(=O)N(C)CC(=O)N(C)[C@H]2C/C=C\CCN(C2=O)[C@@H](Cc2ccc(C(F)(F)F)cc2)C(=O)N(C)CC(=O)N[C@@H](CCc2ccc(C(F)(F)F)c(OC)c2)C(=O)N2C[C@H](OCC)C[C@H]2C(=O)OC2(CCC2)C(=O)N(C)[C@@H](C2CCCC2)C(=O)N(C)[C@H](C(=O)N(C)C)CC(=O)N1C [PP3373]	GDP-bound KRAS wild-type protein (Homo sapiens)	0.21

Exam item: What measured Kd is associated with CCO[C@@H]1C[C@H]2C(=O)NC3(CCC3)C(=O)N(C)[C@@H](C3CCCC3)C(=O)N(C)[C@H](C(=O)N3CCOCC3)CC(=O)N(C)[C@@H](CC(C)C)C(=O)N[C@@H]([C@H](C)CC)C(=O)N(C)CC(=O)N(C)[C@H]3CCCCCN(C3=O)[C@@H](Cc3ccc(C(F)(F)F)cc3)C(=O)N(C)CC(=O)N[C@@H](CCc3cc(F)c(C(F)(F)F)c(F)c3)C(=O)N2C1 [PP0815] on GDP-bound KRAS wild-type protein (Homo sapiens)?
Marked response: 3.9

Exam item: Then what about the compound CCC[C@H]1C(=O)N[C@@H]([C@@H](C)CC)C(=O)N(C)CC(=O)N(C)[C@H]2C/C=C\CCN(C2=O)[C@@H](Cc2ccc(C)cc2)C(=O)N(C)CC(=O)N[C@@H](CCc2ccc(C(F)(F)F)c(Cl)c2)C(=O)N2CC3(CC3)C[C@H]2C(=O)N(C)C2(CCC2)C(=O)N(C)[C@@H](C2CCCC2)C(=O)N(C)[C@H](C(=O)N(C)C)CC(=O)N1C [PP3298] ?
Marked response: 0.34
